target: firefly luciferase (FLuc) (Photinus pyralis, UniProt P08659); construct: host or cells: AR-EcoScreen (Chinese hamster ovary derived), lysate after dihydrotestosterone induction; assay: Cell-lysate (AR-EcoScreen) in vitro firefly luciferase inhibition assay; type: biochemical; settings: IC50 firefly luciferase inhibition, AR-EcoScreen cell lysate
Sequence (P08659 whole entry): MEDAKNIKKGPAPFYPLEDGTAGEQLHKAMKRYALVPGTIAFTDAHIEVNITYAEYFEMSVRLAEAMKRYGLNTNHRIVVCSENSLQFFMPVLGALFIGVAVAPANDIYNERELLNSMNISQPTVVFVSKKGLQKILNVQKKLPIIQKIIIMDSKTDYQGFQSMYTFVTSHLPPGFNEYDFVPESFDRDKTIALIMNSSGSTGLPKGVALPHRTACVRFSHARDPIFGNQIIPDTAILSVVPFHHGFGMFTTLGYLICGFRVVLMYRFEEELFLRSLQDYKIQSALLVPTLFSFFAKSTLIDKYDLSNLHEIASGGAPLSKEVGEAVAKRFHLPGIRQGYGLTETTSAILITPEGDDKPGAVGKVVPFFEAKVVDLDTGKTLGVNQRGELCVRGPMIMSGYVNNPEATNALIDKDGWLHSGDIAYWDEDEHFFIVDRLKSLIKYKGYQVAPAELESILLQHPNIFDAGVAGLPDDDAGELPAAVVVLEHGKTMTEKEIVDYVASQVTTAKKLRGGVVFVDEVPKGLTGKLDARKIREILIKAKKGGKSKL
# if measured IC50 < 40 µM: Criterion met  # else: Criterion not met

Q. Does COc1cc2c(=O)c(-c3ccc(O)cc3)coc2cc1O [Glycitein] have IC50 strictly under 40 µM?
A. Criterion met

Q. Does COc1ccc(-c2coc3cc(O)ccc3c2=O)cc1O [Calycosin] have IC50 strictly under 40 µM?
A. Criterion met

Q. Does O=c1c(-c2ccc(O)cc2)coc2cc(O)cc(O)c12 [Genistein, genistein] have IC50 strictly under 40 µM?
A. Criterion met

Q. Does O=c1c(-c2ccc(O)cc2)coc2cc(O)ccc12 [Daidzein] have IC50 strictly under 40 µM?
A. Criterion not met

Q. Does COc1cc(O)c2c(=O)c(-c3ccc(O)cc3)coc2c1 [Prunetin, prunetin] have IC50 strictly under 40 µM?
A. Criterion met
